Biological target: Peregrin (Homo sapiens)
Details: Compound concentration 20.0 uM
Non-standard residues stand in square brackets, D forms with d. Residues, ends and D or L forms follow the SMILES beside them. *: point of attachment. Tyr(3-Cl) = N[C@@H](Cc1ccc(O)c(Cl)c1)C(=O)O; Benzoyl(3,5-Cl2) = O=C(c1cc(Cl)cc(Cl)c1)*; Lys(Et2) = CCN(CC)CCCC[C@H](N)C(=O)O; Gly(cPent) = N[C@H](C(=O)O)C1CCCC1; NH(propargyl) = C#CCN*
Please assign -1 whenever ΔTm is at or above 0.7 °C, and 1 whenever it is below.

Observe how each entry below is paired with its result.
>>> assigned_category("C=CCO/N=C1\\c2ccccc2-c2nc(C#N)c(C#N)nc21")
-1
>>> assigned_category("O=C1C(P(=O)(O)O)CCCN1O (stereo not given)")
1
>>> assigned_category("O=c1c2nnc(C3CCOCC3)n2cc(Br)n1CC1CCCC1")
1

hey, is ΔTm for O=C(CNC(=O)[C@H](COP(=O)(O)O)NC(=O)CCc1c[nH]c2ccccc12)NCCCCc1ccccc1 lower than 0.7 °C or not? -1

Also check O=C(N1CCCC[C@@H]1Cc1ccccc1)n1cc(-c2ccc(-c3ccccc3)cc2)nn1 1

Queued: C#CCNC(=O)[C@H](CO)NC(=O)[C@H](CCCCN(CC)CC)NC(=O)[C@@H](NC(=O)[C@@H](NC(=O)[C@H](Cc1ccc(O)c(Cl)c1)NC(=O)c1cc(Cl)cc(Cl)c1)C1CCCC1)[C@@H](C)CC ({Benzoyl(3,5-Cl2)}-[Tyr(3-Cl)][Gly(cPent)]I[Lys(Et2)]S-{NH(propargyl)}) -1

What do you get for N=C(N)SCc1ccc(CN2C(=O)C(=O)c3cc(Br)cc(Br)c32)cc1 ? 1

What about this compound? O=C(c1cc(Cl)c(O)c(Cl)c1)N1CS(=O)(=O)c2ccccc21 -1

Repeat with CCCC1O[C@@H]2C[C@H]3[C@@H]4CCC5=CC(=O)C=C[C@]5(C)[C@H]4[C@@H](O)C[C@]3(C)[C@]2(C(=O)CO)O1 (stereo not given in full) 1

All figures here come from ChEMBL document CHEMBL5724796.
